System: CTB-1
Test: cells
Format: functional, cell-based
Details: Homo sapiens
Description: SANGER: Inhibition of human CTB-1 cell growth in a cell viability assay.
Please respond with reported pIC50 for every item in the list.
By convention, pIC50 is the negative base-10 log of a molar concentration.

**Q:** Looking for the measured pIC50 of COc1ccc(-c2ccc3c(N4CCOC[C@@H]4C)nc(N4CCOC[C@@H]4C)nc3n2)cc1CO [AZD-8055] , can you help?
**A:** 6.57

**Q:** Looking for the measured pIC50 of C=CCc1cccc(/C=N/NC(=O)CN2CCN(Cc3ccccc3)CC2)c1O [PAC-1] , can you help?
**A:** 5.84

**Q:** Looking for the measured pIC50 of COC(=O)CNC(=O)C(=O)OC , can you help?
**A:** 4.07

**Q:** Looking for the measured pIC50 of CC(=O)O[C@@]12CO[C@@H]1C[C@H](O)[C@@]1(C)C(=O)[C@H](O)C3=C(C)[C@@H](OC(=O)[C@H](O)[C@@H](NC(=O)OC(C)(C)C)c4ccccc4)C[C@@](O)([C@@H](OC(=O)c4ccccc4)[C@H]21)C3(C)C [DOCETAXEL] , can you help?
**A:** 8.72

**Q:** Looking for the measured pIC50 of Nc1ccn([C@@H]2O[C@H](CO)[C@@H](O)[C@@H]2O)c(=O)n1 [CYTARABINE] , can you help?
**A:** 7.46

**Q:** Looking for the measured pIC50 of COc1cc([C@@H]2c3cc4c(cc3[C@@H](O[C@@H]3O[C@@H]5CO[C@@H](C)O[C@H]5[C@H](O)[C@H]3O)[C@H]3COC(=O)[C@H]23)OCO4)cc(OC)c1O [ETOPOSIDE] , can you help?
**A:** 5.77

====

Test system: CHL-1;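 note: cell growth inhibition, read out with a cell viability assay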
Assay: cells
Type: functional, cell-based, Homo sapiens
Conditions: chl-1
Description: SANGER: Inhibition of human CHL-1 cell growth in a cell viability assay.
Metric Name: IC50 (µM)
Hi! Could you send only the number? It should be in µM, unit omitted.

**Q:** Looking for the measured IC50 of Cc1cc([C@@H](C)Nc2ccccc2C(=O)O)c2nc(N3CCOCC3)cc(=O)n2c1 , can you help?
**A:** 4.72

====

Please respond with reported IC50 for every item in the list.
Test system: DoTc2-4510
Assay: cells
Type: functional, cell-based, Homo sapiens
Settings: Homo sapiens, DoTc2-4510

**Q:** Looking for the measured IC50 of O=C(c1cc(Cc2n[nH]c(=O)c3ccccc23)ccc1F)N1CCN(C(=O)C2CC2)CC1 , can you help?
**A:** > 5000 nM

**Q:** Looking for the measured IC50 of COc1cc([C@@H]2c3cc4c(cc3[C@@H](O[C@@H]3O[C@@H]5CO[C@@H](C)O[C@H]5[C@H](O)[C@H]3O)[C@H]3COC(=O)[C@H]23)OCO4)cc(OC)c1O [ETOPOSIDE] , can you help?
**A:** 1050 nM

**Q:** Looking for the measured IC50 of CN(c1ncccc1CNc1nc(Nc2ccc3c(c2)CC(=O)N3)ncc1C(F)(F)F)S(C)(=O)=O , can you help?
**A:** > 2560 nM

====

System: TE-6
Test: cells
Assay type: functional, cell-based, Homo sapiens
Conditions: Homo sapiens, TE-6
Description: SANGER: Inhibition of human TE-6 cell growth in a cell viability assay.
Please respond with reported pIC50 for every item in the list.
By convention, pIC50 is the negative base-10 log of a molar concentration.

**Q:** I'm curious: which pIC50 was measured for CS(=O)(=O)CCNCc1ccc(-c2ccc3ncnc(Nc4ccc(OCc5cccc(F)c5)c(Cl)c4)c3c2)o1 tested on TE-6?
**A:** 5.81

**Q:** I'm curious: which pIC50 was measured for COc1ccc(-c2ccc3c(N4CCOC[C@@H]4C)nc(N4CCOC[C@@H]4C)nc3n2)cc1CO tested on TE-6?
**A:** 5.77

====

Tested on: NCI-H2347
Experiment: cells
Assay type: functional, cell-based, Homo sapiens
Details: Homo sapiens, NCI-H2347
Description: SANGER: Inhibition of human NCI-H2347 cell growth in a cell viability assay.
Please respond with reported IC50 for every item in the list.

**Q:** Looking for the measured IC50 of CC(=O)O[C@@H]1[C@@H](OC(C)=O)[C@@H](O)[C@H](Oc2c(-c3ccc(O)cc3)oc3cc(O)cc(O)c3c2=O)O[C@H]1C , can you help?
**A:** > 10 µM

**Q:** Looking for the measured IC50 of CCOc1nc(NC(=O)Cc2cc(OC)ccc2OC)cc(N)c1C#N , can you help?
**A:** > 10 µM

**Q:** Looking for the measured IC50 of C=CCNC1=C2C[C@@H](C)C[C@H](OC)[C@H](O)[C@@H](C)/C=C(\C)[C@H](OC(N)=O)[C@@H](OC)/C=C\C=C(/C)C(=O)NC(=CC1=O)C2=O [TANESPIMYCIN] , can you help?
**A:** 0.148 µM

**Q:** Looking for the measured IC50 of Cc1ccc(Nc2nccc(N(C)c3ccc4c(C)n(C)nc4c3)n2)cc1S(N)(=O)=O [PAZOPANIB] , can you help?
**A:** > 8 µM

**Q:** Looking for the measured IC50 of Cc1cnc(-c2cnc(NCCNc3ccc(C#N)cn3)nc2-c2ccc(Cl)cc2Cl)[nH]1 [LADUVIGLUSIB] , can you help?
**A:** > 2.56 µM

**Q:** Looking for the measured IC50 of Cn1cncc1[C@@](N)(c1ccc(Cl)cc1)c1ccc2c(c1)c(-c1cccc(Cl)c1)cc(=O)n2C [TIPIFARNIB] , can you help?
**A:** > 16 µM

**Q:** Looking for the measured IC50 of CN(C)C/C=C/C(=O)Nc1cc2c(Nc3ccc(F)c(Cl)c3)ncnc2cc1O[C@H]1CCOC1 [AFATINIB] , can you help?
**A:** > 0.5 µM

====

System: M059J
Assay: cells
Type: functional, cell-based, Homo sapiens
Conditions: Homo sapiens, M059J
Description: SANGER: Inhibition of human M059J cell growth in a cell viability assay.
pIC50: −log10 of the molar value.
Metric Name: pIC50

**Q:** Looking for the measured pIC50 of C=CCNC1=C2C[C@@H](C)C[C@H](OC)[C@H](O)[C@@H](C)/C=C(\C)[C@H](OC(N)=O)[C@@H](OC)/C=C\C=C(/C)C(=O)NC(=CC1=O)C2=O [TANESPIMYCIN] , can you help?
**A:** 7.04

**Q:** Looking for the measured pIC50 of O=c1cc(-c2cccc3c2Sc2ccccc2S3)oc(N2CCOCC2)c1 [KU-55933] , can you help?
**A:** < 5.00

**Q:** Looking for the measured pIC50 of COc1ccc(-c2ccc3c(N4CCOC[C@@H]4C)nc(N4CCOC[C@@H]4C)nc3n2)cc1CO [AZD-8055] , can you help?
**A:** < 5.70

**Q:** Looking for the measured pIC50 of O=C(c1cc(Cc2n[nH]c(=O)c3ccccc23)ccc1F)N1CCN(C(=O)C2CC2)CC1 [OLAPARIB] , can you help?
**A:** < 5.30

**Q:** Looking for the measured pIC50 of Cn1cc(C2=C(c3ccc(Cl)cc3Cl)C(=O)NC2=O)c2ccccc21 [SB-216763] , can you help?
**A:** < 5.00

**Q:** Looking for the measured pIC50 of Nc1ccn([C@@H]2O[C@H](CO)[C@@H](O)[C@@H]2O)c(=O)n1 [CYTARABINE] , can you help?
**A:** 5.74

**Q:** Looking for the measured pIC50 of Cc1cnc(-c2cnc(NCCNc3ccc(C#N)cn3)nc2-c2ccc(Cl)cc2Cl)[nH]1 [LADUVIGLUSIB] , can you help?
**A:** < 5.59

====

System: ACHN
Experiment: cells
Type: functional, cell-based, Homo sapiens
Details: Homo sapiens, ACHN
Description: SANGER: Inhibition of human ACHN cell growth in a cell viability assay.
Metric Name: IC50

**Q:** I'm curious: which IC50 was measured for COc1ccc(C2=N[C@@H](c3ccc(Cl)cc3)[C@@H](c3ccc(Cl)cc3)N2C(=O)N2CCNC(=O)C2)c(OC(C)C)c1 tested on ACHN?
**A:** > 8 µM

**Q:** I'm curious: which IC50 was measured for Cc1ccc(Nc2nccc(N(C)c3ccc4c(C)n(C)nc4c3)n2)cc1S(N)(=O)=O tested on ACHN?
**A:** > 8 µM

**Q:** I'm curious: which IC50 was measured for Cc1cnc(-c2cnc(NCCNc3ccc(C#N)cn3)nc2-c2ccc(Cl)cc2Cl)[nH]1 tested on ACHN?
**A:** > 2.56 µM

**Q:** I'm curious: which IC50 was measured for CCOc1nc(NC(=O)Cc2cc(OC)ccc2OC)cc(N)c1C#N tested on ACHN?
**A:** > 10 µM

**Q:** I'm curious: which IC50 was measured for COC(=O)CNC(=O)C(=O)OC tested on ACHN?;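 note: cell viability read-out used to gauge how strongly growth of human ACHN cells is suppressed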
**A:** 297 µM

====

Please respond with reported pIC50 for every item in the list.
Test system: MFE-296
Assay: SANGER: Inhibition of human MFE-296 cell growth in a cell viability assay.
Type: functional, cell-based
By convention, pIC50 is the negative base-10 log of a molar concentration.

**Q:** Looking for the measured pIC50 of CCC1=C[C@@H]2CN(C1)Cc1c([nH]c3ccccc13)[C@@](C(=O)OC)(c1cc3c(cc1OC)N(C)[C@H]1[C@@](O)(C(=O)OC)[C@H](OC(C)=O)[C@]4(CC)C=CCN5CC[C@]31[C@@H]54)C2 [VINORELBINE] , can you help?
**A:** 8.22

**Q:** Looking for the measured pIC50 of Cc1ccc(Nc2nccc(N(C)c3ccc4c(C)n(C)nc4c3)n2)cc1S(N)(=O)=O [PAZOPANIB] , can you help?
**A:** 6.23

**Q:** Looking for the measured pIC50 of Cc1cc([C@@H](C)Nc2ccccc2C(=O)O)c2nc(N3CCOCC3)cc(=O)n2c1 [AZD-6482] , can you help?
**A:** 5.80

**Q:** Looking for the measured pIC50 of COC(=O)CNC(=O)C(=O)OC , can you help?
**A:** 3.50

**Q:** Looking for the measured pIC50 of COc1cc([C@@H]2c3cc4c(cc3[C@@H](O[C@@H]3O[C@@H]5CO[C@@H](C)O[C@H]5[C@H](O)[C@H]3O)[C@H]3COC(=O)[C@H]23)OCO4)cc(OC)c1O [ETOPOSIDE] , can you help?
**A:** 6.12
